Test system: NHDF
Assay: Cytotoxicity against NHDF cells after 48 hrs by SRB staining assay
Assay type: cell-based
Conditions: human
Response field label: string, one of met (LC50 strictly below 90 µM) or not met.

Query: Does the reported LC50 of the following molecule sit strictly below 90 µM? O=C(N1CCN(C2(c3ccccc3)C3CC4CC(C3)CC2C4)CC1)n1ccnc1 (stereo unspecified)
Response: not met

Query: Does the reported LC50 of the following molecule sit strictly below 90 µM? Fc1ccc(C2(N3CCNCC3)C3CC4CC(C3)CC2C4)cc1.O=C(O)/C=C\C(=O)O (stereo unspecified)
Response: not met

Query: Does the reported LC50 of the following molecule sit strictly below 90 µM? O=C(CN1CCCCC1)N1CCN(C2(c3ccc(F)cc3)C3CC4CC(C3)CC2C4)CC1 (stereo unspecified)
Response: met

Query: Does the reported LC50 of the following molecule sit strictly below 90 µM? CCOC(=O)N1CCN(C2(c3ccccc3)C3CC4CC(C3)CC2C4)CC1 (stereo unspecified)
Response: not met

Query: Does the reported LC50 of the following molecule sit strictly below 90 µM? O=C(CN1CCCCC1)N1CCN(C2(c3ccccc3)C3CC4CC(C3)CC2C4)CC1 (stereo unspecified)
Response: met
